system: Sam68 (KHDRBS1); assay: Sam68 small-molecule binders, primary screen, biochemical, small-molecule microarray, 635 nm fluorescence (AID 1125); conditions: small-molecule microarray binding, higher = more signal;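 also: score merges 667 nm channel intensity with signal to noise over triplicate slides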
Tick yes (1) if composite z-score is 0.2 or greater. Tick no (0) if composite z-score is less than 0.2.

Would you please look over these solved cases?
COMPOUND	TARGET OR SYSTEM	GROUP LABEL
COCC(=C=CC[C@H](O)c1ccc(OCCO)cc1)C[C@H](O)COCc1ccccc1	Sam68 (KHDRBS1)	yes (1)
CN1C2C=C(CCCO)C(C3C(=O)N(C(N)=O)C(=O)C32)C1c1cccs1 (stereo not drawn)	Sam68 (KHDRBS1)	yes (1)
CCOC(=O)[C@H]1C/C=C/C[C@H](C(=O)OCC)C(=O)O[C@H]2[C@@H](OC)O[C@H](CO)[C@@H](OC(=O)CCc3ccccc3)[C@@H]2OC1=O	Sam68 (KHDRBS1)	no (0)
C=C[C@@H](C)[C@H](OC(=O)Nc1ccc(SC)cc1)c1ccc(OCCO)cc1	Sam68 (KHDRBS1)	no (0)
COc1cc2c(cc1OC)CN(C(=O)[C@H]1[C@@H]3C(=O)O[C@@H](c4ccccc4)[C@@H](c4ccccc4)N3[C@@H](c3ccc(OCCO)cc3)[C@]13C(=O)Nc1ccc(C#CCCO)cc13)CC2	Sam68 (KHDRBS1)	yes (1)

[ask] Has CC(C)N1CC=CC23O[C@@H]4C=CCCOC(=O)C4[C@H]2C(=O)N(CCO)[C@@H]3C1=O (stereo partly drawn) a recorded composite z-score greater than or equal to 0.2?
[reply] no (0)

[ask] Has C[C@H]1C2=C3C(CC[C@H]4C(OCc5ccc(F)cc5C(F)(F)F)OC[C@](C)([C@@H]34)N(C(=O)OC(C)(C)C)C2)C2COC(=O)OCC21 (stereo partly drawn) a recorded composite z-score greater than or equal to 0.2?
[reply] yes (1)

[ask] Has [N-]=[N+]=NCc1ccccc1C[C@@]1(C(=O)NCCN2CCOCC2)N=C(c2ccc(OCCCO)cc2)O[C@@H]1c1ccccc1N=[N+]=[N-] a recorded composite z-score greater than or equal to 0.2?
[reply] yes (1)
